Test system: Tetranychus urticae
Assay: Tetranychus urticae (two-spotted spider mite): feeding/contact activity
Type: in vivo
Conditions: 192 h, application rate 200 ppm, mixed population (mobile stages), 8 days after infestation, read-out: mortality
Description: Bean leaf discs on agar in 24-well microtiter plates were sprayed with aqueous test solutions prepared from 10'000 ppm DMSO stock solutions. After drying the leaf discs were infested with a mite population of mixed ages. The samples were assessed for mortality on mixed population (mobile stages) 8 days after infestation.
Recorded mortality at 200 ppm by entry

# input Tell me the measured mortality at 200 ppm of "C#CCN(CC)S(=O)(=O)N1C[C@@H](NC(=O)c2ccc(C3=NO[C@@](c4cc(Cl)cc(Cl)c4)(C(F)(F)F)C3)cc2Cl)CO1" , please.
# output ≥ 80%

# input Tell me the measured mortality at 200 ppm of CCN(C(C)C)S(=O)(=O)N1CC(NC(=O)c2ccc(C3=NO[C@@](c4cc(Cl)c(Cl)c(Cl)c4)(C(F)(F)F)C3)cc2C)CO1 (stereo partly drawn) , please.
# output ≥ 80%

# input Tell me the measured mortality at 200 ppm of "CNS(=O)(=O)N1C[C@@H](NC(=O)c2ccc(C3=NO[C@@](c4cc(Cl)cc(C(F)(F)F)c4)(C(F)(F)F)C3)cc2Cl)CO1" , please.
# output ≥ 80%

###

tested on: Tetranychus urticae; experiment: Tetranychus urticae (two-spotted spider mite): feeding/contact activity; type: in vivo; conditions: 192 h, application rate 200 ppm, mixed population (mobile stages), 8 days after infestation, read-out: mortality
Recorded mortality at 200 ppm by entry

Take a look at these entries with their results.
# input Tell me the measured mortality at 200 ppm of Cc1cc(C2=NO[C@@](c3cc(Cl)cc(C(F)(F)F)c3)(C(F)(F)F)C2)ccc1C(=O)N[C@@H]1CON(S(=O)(=O)CC(F)(F)F)C1 [Compound A214] , please.
# output ≥ 80%

# input Tell me the measured mortality at 200 ppm of Cc1cc(C2=NO[C@@](c3cc(Cl)c(F)c(Cl)c3)(C(F)(F)F)C2)ccc1C(=O)N[C@@H]1CON(S(C)(=O)=O)C1 (single isomer, unassigned) [Compound A12] , please.
# output ≥ 80%

For the next question, use this compound.
# input Tell me the measured mortality at 200 ppm of Cc1cc(C2=NO[C@@](c3cc(Cl)c(Cl)c(Cl)c3)(C(F)(F)F)C2)ccc1C(=O)N[C@H]1CON(S(=O)(=O)C(F)F)C1 [Compound A231] , please.
# output ≥ 80%

###

System: Plutella xylostella
Assay: Plutella xylostella (diamond back moth), artificial diet
Assay type: in vivo
Settings: 120 h, application rate 200 ppm, L2 larvae, 5 days after infestation, read-out: effect in at least one of the two categories (mortality or growth inhibition)
Procedure: 24-well microtiter plates with artificial diet were treated with aqueous test solutions prepared from 10'000 ppm DMSO stock solutions by pipetting. After drying, the plates were infested with L2 larvae (10 to 15 per well). The samples were assessed for mortality and growth inhibition in comparison to untreated samples 5 days after infestation. […]
Recorded percent effect (mortality or growth inhibition) at 200 ppm by entry

Take a look at these entries with their results.
# input Under Plutella xylostella: percent effect (mortality or growth inhibition) at 200 ppm value of CCS(=O)(=O)N1CC(NC(=O)c2ccc(C3=NO[C@@](c4cc(Cl)c(F)c(Cl)c4)(C(F)(F)F)C3)cc2Cl)CO1 (stereo partly drawn) ?
# output ≥ 80%

# input Under Plutella xylostella: percent effect (mortality or growth inhibition) at 200 ppm value of "CNC(=O)CS(=O)(=O)N1C[C@H](NC(=O)c2ccc(C3=NO[C@@](c4cc(Cl)cc(Cl)c4)(C(F)(F)F)C3)cc2C)CO1" ?
# output ≥ 80%

For the next question, use this molecule.
# input Under Plutella xylostella: percent effect (mortality or growth inhibition) at 200 ppm value of "Cc1cc(C2=NO[C@](c3cc(Cl)c(F)c(Cl)c3)(C(F)(F)F)C2)ccc1C(=O)N[C@H]1CON(S(=O)(=O)CCC(F)(F)F)C1" ?
# output ≥ 80%

###

test system: Plutella xylostella; assay: Plutella xylostella (diamond back moth), artificial diet; type: in vivo; conditions: 120 h, application rate 200 ppm, L2 larvae, 5 days after infestation, read-out: effect in at least one of the two categories (mortality or growth inhibition)
outcome_measure: percent effect (mortality or growth inhibition) at 200 ppm

Take a look at these entries with their results.
# input Tell me the measured percent effect (mortality or growth inhibition) at 200 ppm of Cc1cc(C2=NO[C@@](c3cc(Cl)c(F)c(Cl)c3)(C(F)(F)F)C2)ccc1C(=O)N[C@@H]1CON(S(=O)(=O)CC(=O)NO)C1 [Compound A203] , please.
# output ≥ 80%

# input Tell me the measured percent effect (mortality or growth inhibition) at 200 ppm of CCNS(=O)(=O)N1C[C@@H](NC(=O)c2ccc(C3=NO[C@@](c4cc(Cl)cc(C(F)(F)F)c4)(C(F)(F)F)C3)cc2Cl)CO1 [Compound A128] , please.
# output ≥ 80%

New cases:
# input Tell me the measured percent effect (mortality or growth inhibition) at 200 ppm of Cc1cc(C2=NO[C@@](c3cc(Cl)cc(C(F)(F)F)c3)(C(F)(F)F)C2)ccc1C(=O)N[C@@H]1CON(S(=O)(=O)C(F)F)C1 [Compound A233] , please.
# output ≥ 80%

###

tested on: Tetranychus urticae; experiment: Tetranychus urticae (two-spotted spider mite): feeding/contact activity; format: in vivo; conditions: 192 h, application rate 200 ppm, mixed population (mobile stages), 8 days after infestation, read-out: mortality
outcome_measure: mortality at 200 ppm

Take a look at these entries with their results.
# input Under Tetranychus urticae: mortality at 200 ppm value of Cc1cc(C2=NO[C@@](c3cc(Cl)c(F)c(Cl)c3)(C(F)(F)F)C2)ccc1C(=O)N[C@H]1CON(S(=O)(=O)CBr)C1 [Compound A189] ?
# output ≥ 80%

# input Under Tetranychus urticae: mortality at 200 ppm value of CNS(=O)(=O)N1CC(NC(=O)c2ccc(C3=NO[C@@](c4cc(Cl)c(F)c(Cl)c4)(C(F)(F)F)C3)cc2C)CO1 (stereo partly drawn) [Compound A70] ?
# output ≥ 80%

For the next question, use this molecule.
# input Under Tetranychus urticae: mortality at 200 ppm value of CCN(C)S(=O)(=O)N1C[C@@H](NC(=O)c2ccc(C3=NO[C@@](c4cc(Cl)cc(Cl)c4)(C(F)(F)F)C3)cc2C)CO1 [Compound A142] ?
# output ≥ 80%

###

tested on: Plutella xylostella; experiment: Plutella xylostella (diamond back moth), artificial diet; assay type: in vivo; details: 120 h, application rate 200 ppm, L2 larvae, 5 days after infestation, read-out: effect in at least one of the two categories (mortality or growth inhibition)
Recorded percent effect (mortality or growth inhibition) at 200 ppm by entry

Take a look at these entries with their results.
# input Tell me the measured percent effect (mortality or growth inhibition) at 200 ppm of "Cc1cc(C2=NO[C@@](c3cc(Cl)cc(Cl)c3)(C(F)(F)F)C2)ccc1C(=O)N[C@@H]1CON(S(=O)(=O)NCC(F)(F)F)C1" , please.
# output ≥ 80%

# input Tell me the measured percent effect (mortality or growth inhibition) at 200 ppm of CCS(=O)(=O)N1CC(NC(=O)c2ccc(C3=NO[C@@](c4cc(Cl)c(F)c(Cl)c4)(C(F)(F)F)C3)cc2Br)CO1 (stereo partly shown) , please.
# output ≥ 80%

# input Tell me the measured percent effect (mortality or growth inhibition) at 200 ppm of "Cc1cc(C2=NO[C@@](c3cc(Cl)cc(Cl)c3)(C(F)(F)F)C2)ccc1C(=O)N[C@@H]1CON(S(=O)(=O)CBr)C1" , please.
# output ≥ 80%

# input Tell me the measured percent effect (mortality or growth inhibition) at 200 ppm of "Cc1cc(C2=NO[C@@](c3cc(F)cc(C(F)(F)F)c3)(C(F)(F)F)C2)ccc1C(=O)N[C@@H]1CON(S(C)(=O)=O)C1" , please.
# output ≥ 80%

New cases:
# input Tell me the measured percent effect (mortality or growth inhibition) at 200 ppm of "CS(=O)(=O)N1C[C@@H](NC(=O)c2ccc(C3=NO[C@@](c4cc(Cl)c(Cl)c(Cl)c4)(C(F)(F)F)C3)cc2Cl)CO1" , please.
# output ≥ 80%

# input Tell me the measured percent effect (mortality or growth inhibition) at 200 ppm of "Cc1cc(C2=NO[C@@](c3cc(Cl)c(F)c(Cl)c3)(C(F)(F)F)C2)ccc1C(=O)N[C@@H]1CON(S(=O)(=O)N(C)C2(C#N)CC2)C1" , please.
# output ≥ 80%

# input Tell me the measured percent effect (mortality or growth inhibition) at 200 ppm of Cc1cc(C2=NO[C@@](c3cc(Cl)c(F)c(Cl)c3)(C(F)(F)F)C2)ccc1C(=O)NC1CON(S(=O)(=O)N(C)S(C)(=O)=O)C1 (stereo partly shown) , please.
# output ≥ 80%

# input Tell me the measured percent effect (mortality or growth inhibition) at 200 ppm of "Cc1cc(C2=NO[C@@](c3cc(Cl)cc(C(F)(F)F)c3)(C(F)(F)F)C2)ccc1C(=O)N[C@H]1CON(S(C)(=O)=O)C1" , please.
# output ≥ 80%

# input Tell me the measured percent effect (mortality or growth inhibition) at 200 ppm of "C=CS(=O)(=O)N1C[C@@H](NC(=O)c2ccc(C3=NO[C@@](c4cc(Cl)c(F)c(Cl)c4)(C(F)(F)F)C3)cc2C)CO1" , please.
# output ≥ 80%

# input Tell me the measured percent effect (mortality or growth inhibition) at 200 ppm of Cc1cc(C2=NO[C@@](c3cc(Cl)c(F)c(Cl)c3)(C(F)(F)F)C2)ccc1C(=O)NC1CON(S(=O)(=O)c2ccc(Cl)cc2)C1 (stereo partly shown) , please.
# output ≥ 80%
